These measurements were taken from ChEMBL document CHEMBL6083217.

# test-method-notes: AUC (0 to infinity) in C57BL mouse at 10 mg/kg, po or 2 mg/kg, iv
# Format: ADME, organism-based
# condition-notes: in vivo
reported-endpoint: AUC(0-inf) (ng·h/mL)

CCn1c(CO)nn(-c2cc3c(C(C)C)nn(-c4c(F)cccc4Cl)c(=O)c3cc2F)c1=O ... 50400

[a] CCn1c(CO)nn(-c2cc3c(C(C)C)cc(-c4ccccc4C)c(=O)n3cc2F)c1=O
[b] CCn1c(CO)nn(-c2cc3c(C(C)C)cn(-c4ccccc4C)c(=O)c3cc2F)c1=O
[c] CCn1c(CO)nn(-c2cc3c(C(C)C)nn(-c4ccccc4C)c(=O)c3cc2F)c1=O
Arrange the 3 compounds by rising AUC(0-inf), starting with the smallest. Returns: the labels arranged in the requested order. a, c, b

====

# test-method-notes: Protein binding in human plasma
# Assay type: ADME, cell-free
# condition-notes: read-out: PPB (converted)
reported-endpoint: fraction unbound

CCn1c(CO)nn(-c2cc3c(C(C)C)cc(-c4ccccc4C)c(=O)n3cc2F)c1=O ... 0.049
CCn1c(CO)nn(-c2cc3c(C(C)C)cn(-c4ccccc4C)c(=O)c3cc2F)c1=O ... 0.099

[I] CCn1c(CO)nn(-c2cc3c(C(C)C)nn(-c4ccccc4C)c(=O)c3cc2F)c1=O
[II] CCn1c(CO)nn(-c2cc3c(C(C)C)nn(-c4c(F)cccc4Cl)c(=O)c3cc2F)c1=O
Pick the one with the larger fraction unbound: I vs II Indicate your choice by writing its label. I

====

# test-method-notes: Protein binding in mouse plasma
# Type: ADME, cell-free
# condition-notes: read-out: PPB (converted)
reported-endpoint: fraction unbound

[1] CCn1c(CO)nn(-c2cc3c(C(C)C)nn(-c4ccccc4C)c(=O)c3cc2F)c1=O
[2] CCn1c(CO)nn(-c2cc3c(C(C)C)nn(-c4c(F)cccc4Cl)c(=O)c3cc2F)c1=O
[3] CCn1c(CO)nn(-c2cc3c(C(C)C)cn(-c4ccccc4C)c(=O)c3cc2F)c1=O
Ranking criterion: fraction unbound, increasing numeric value. Items: as listed above. Give your ranking as a list of the labels in the requested order. 2, 3, 1
